B1: RIPK4 (parent)
chain: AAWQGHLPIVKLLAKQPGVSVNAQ

Variants of: B1
Test: protein stability index of a GFP-peptide fusion (GPS, HEK-293T) (PSI 1-6); higher = more stable;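 also: lentivirally expressed fusions sorted by FACS into six bins by GFP to DsRed ratio, PSI derived from sequencing read proportions per bin multiplied by bin number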
Details: c terminus: a fixed tail appended
For each of the variants below, state its protein stability index.
Enter a number only.

// sample L7C , its protein stability index was 2.21

// sample L7Q , its protein stability index was 3.55

// sample K15G , its protein stability index was 2.58

// sample A14I , its protein stability index was 1.67

// sample G18Y , its protein stability index was 2.08

// sample H6D , its protein stability index was 2.98

// sample S20I , its protein stability index was 2.33

// sample K15R , its protein stability index was 2.06

// sample Q16R , its protein stability index was 2.26

// sample P17D , its protein stability index was 2.15

// sample W3V , its protein stability index was 2.49

// sample A14H , its protein stability index was 2.13

// sample S20V , its protein stability index was 1.82

// sample W3F , its protein stability index was 2.97

// sample L7T , its protein stability index was 2.29

// sample S20E , its protein stability index was 2.79

// sample G5S , its protein stability index was 2.2

// sample V21E , its protein stability index was 2.92

// sample L7G , its protein stability index was 3.01

// sample P17G , its protein stability index was 2.22

// sample G18H , its protein stability index was 2.55

// sample Q24V , its protein stability index was 3.06

// sample N22V , its protein stability index was 3.92

// sample K11E , its protein stability index was 3.62

// sample H6F , its protein stability index was 1.41

// sample G18L , its protein stability index was 2.07

// sample P8K , its protein stability index was 1.07

// sample L7N , its protein stability index was 3.36

// sample L12W , its protein stability index was 1.33

// sample A1T , its protein stability index was 2.22

// sample H6S , its protein stability index was 1.84

// sample K11Y , its protein stability index was 1.94

// sample V19T , its protein stability index was 2.46

// sample V10D , its protein stability index was 2.74

// sample V19N , its protein stability index was 2.61

// sample V19L , its protein stability index was 2.04

// sample L13D , its protein stability index was 3.82

// sample W3M , its protein stability index was 3.88

// sample L13V , its protein stability index was 2.88

// sample Q4P , its protein stability index was 3.34

// sample N22C , its protein stability index was 1.89

// sample Q16G , its protein stability index was 2.93

// sample A2I , its protein stability index was 1.66

// sample G18K , its protein stability index was 2.46

// sample H6A , its protein stability index was 2.54

// sample Q24H , its protein stability index was 1.93
